% change of MS signal compared to control sample values by entry
biological target: MAP3K4 (Homo sapiens (Human)); assay: KINATIV assay; type: cell-based; settings: 1 μM, 90 minutes, BCWM.1 cells
Sequence (Q9Y6R4 whole entry): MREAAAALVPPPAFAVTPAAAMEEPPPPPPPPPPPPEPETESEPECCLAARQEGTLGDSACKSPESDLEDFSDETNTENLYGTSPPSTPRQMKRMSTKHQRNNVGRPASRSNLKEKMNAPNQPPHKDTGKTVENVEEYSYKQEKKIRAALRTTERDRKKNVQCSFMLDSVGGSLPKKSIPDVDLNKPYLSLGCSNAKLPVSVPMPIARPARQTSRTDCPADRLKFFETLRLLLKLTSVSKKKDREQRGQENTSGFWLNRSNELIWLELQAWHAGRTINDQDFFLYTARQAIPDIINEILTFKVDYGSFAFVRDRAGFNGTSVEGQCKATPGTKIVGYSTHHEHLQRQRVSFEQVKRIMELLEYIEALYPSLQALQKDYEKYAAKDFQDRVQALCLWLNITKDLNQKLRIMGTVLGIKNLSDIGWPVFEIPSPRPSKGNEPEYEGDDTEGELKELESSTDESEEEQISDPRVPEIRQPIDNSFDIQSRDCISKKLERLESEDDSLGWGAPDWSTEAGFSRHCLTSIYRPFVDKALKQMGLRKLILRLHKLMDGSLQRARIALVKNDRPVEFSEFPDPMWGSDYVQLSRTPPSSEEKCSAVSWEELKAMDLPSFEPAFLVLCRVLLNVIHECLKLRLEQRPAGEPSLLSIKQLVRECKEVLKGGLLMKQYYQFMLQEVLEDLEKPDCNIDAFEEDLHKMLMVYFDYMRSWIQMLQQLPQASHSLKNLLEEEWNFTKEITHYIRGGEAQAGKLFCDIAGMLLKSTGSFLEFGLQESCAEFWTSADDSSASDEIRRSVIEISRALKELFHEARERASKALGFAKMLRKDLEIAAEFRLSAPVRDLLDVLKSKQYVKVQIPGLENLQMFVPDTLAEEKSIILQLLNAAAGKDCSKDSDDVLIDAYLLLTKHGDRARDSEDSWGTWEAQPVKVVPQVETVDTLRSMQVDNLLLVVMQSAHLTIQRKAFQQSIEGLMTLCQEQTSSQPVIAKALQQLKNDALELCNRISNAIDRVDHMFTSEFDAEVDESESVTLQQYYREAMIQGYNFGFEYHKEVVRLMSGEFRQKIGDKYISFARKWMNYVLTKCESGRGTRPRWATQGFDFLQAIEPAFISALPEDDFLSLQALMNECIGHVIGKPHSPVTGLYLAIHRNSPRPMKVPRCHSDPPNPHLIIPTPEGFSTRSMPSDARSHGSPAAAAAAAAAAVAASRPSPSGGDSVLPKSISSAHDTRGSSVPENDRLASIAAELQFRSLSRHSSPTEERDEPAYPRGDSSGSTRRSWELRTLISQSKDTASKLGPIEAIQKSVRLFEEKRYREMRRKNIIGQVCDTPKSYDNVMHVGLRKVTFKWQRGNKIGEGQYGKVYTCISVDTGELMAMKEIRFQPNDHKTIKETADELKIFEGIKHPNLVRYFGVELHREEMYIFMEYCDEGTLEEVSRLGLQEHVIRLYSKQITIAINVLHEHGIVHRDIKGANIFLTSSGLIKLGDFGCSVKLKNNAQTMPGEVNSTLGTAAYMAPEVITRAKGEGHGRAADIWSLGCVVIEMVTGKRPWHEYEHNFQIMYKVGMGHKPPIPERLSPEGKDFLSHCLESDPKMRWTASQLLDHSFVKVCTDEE
metric_name: % change of MS signal compared to control sample (%)

| compound | recorded_result |
| --- | --- |
| C=CC(=O)N1CC[C@@H](Nc2nccc(Nc3ncc(C(=O)Nc4c(C)cccc4C)s3)n2)C1 [Example I-4] | −20.5 |
| C=CC(=O)N1CCCCC(Nc2nccc(Nc3ncc(C(=O)Nc4c(C)cccc4C)s3)n2)C1 (stereo not shown) [Example I-7] | −24.2 |
| C=CC(=O)N1CCC(CNc2nccc(Nc3ncc(C(=O)Nc4c(C)cccc4C)s3)n2)C1 (racemic) [Example I-8] | 12.8 |
| C=CC(=O)N1CCC(Cn2ccc(Nc3ncc(C(=O)Nc4c(C)cccc4Cl)s3)n2)C1 (stereo not shown) [II-1] | −23.9 |
